Test system: 521955-158-R6-J3-PDC complex spheroid growth, % test/control;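 note: spheroids exposed to compounds for 7 days; 100% = DMSO vehicle control wells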
Test: Anticancer human tumor 521955-158-R6-J3-PDC patient-derived pancreatic carcinoma cell line growth inhibition [Asc]
Conditions: second compound 1 µM; first compound 0.00949 µM; stronger effect = lower value
MEASURED_ATTRIBUTE: viability, T/C (%)
Your answer should be a plain number; it is taken to be in %.

### Prompt Give the measured viability, T/C of CCN1C(C(=O)NC23CCC(C(=O)O)(CC2)CC3)C(c2cccc(Cl)c2F)C2(C(=O)Nc3cc(Cl)ccc32)C12CCCCC2 (stereo unspecified) + CNC(C)C(=O)NC1CN(S(=O)(=O)c2cccc(S(=O)(=O)N3CCC4CCC(C(=O)NC(c5ccccc5)c5ccccc5)N4C(=O)C(NC(=O)C(C)NC)C3)c2)CCC2CCC(C(=O)NC(c3ccccc3)c3ccccc3)N2C1=O .
### Response 85.2
